# Tested on: A549
# ASSAY_OVERVIEW: Cytotoxicity against human A549 cells after 72 hrs by alamar blue assay
# Type: functional, cell-based
# SETUP_CONDITIONS: A549, 72 h
// reported log10 IC50 for each item listed
Units before log transform: µM; reported quantity: IC50; transform: log10.

CCCOC(=O)/C=C/c1ccc(O)c(OC)c1 = 1.19

Give log10 IC50 (A549) of the following compound: CC(C)CCOC(=O)/C=C/c1ccc(O)c(O)c1
0.94

Give log10 IC50 (A549) of the following compound: CC(C)COC(=O)/C=C/c1ccc(O)c(O)c1
1.13

Give log10 IC50 (A549) of the following compound: COc1cc(/C=C/C(=O)OCc2ccc(OCc3c(-c4ccccc4)no[n+]3[O-])cc2)ccc1O
1.24

Give log10 IC50 (A549) of the following compound: CCCOC(=O)/C=C/c1ccc(O)c(O)c1
0.64

Give log10 IC50 (A549) of the following compound: COC(=O)/C=C/c1ccc(O)c(O)c1 [METHYLCAFFEATE]
0.88

Give log10 IC50 (A549) of the following compound: CCCCCOC(=O)/C=C/c1ccc(O)c(O)c1
0.76

Give log10 IC50 (A549) of the following compound: COc1cc(/C=C/C(=O)OCc2c(-c3ccccc3)no[n+]2[O-])ccc1O
0.31

Give log10 IC50 (A549) of the following compound: COc1cc(/C=C/C(=O)OCCOCCOc2no[n+]([O-])c2S(=O)(=O)c2ccccc2)ccc1O
-0.39

###

# Tested on: NCI-H1299
# ASSAY_OVERVIEW: Cytotoxicity against human NCI-H1299 cells after 72 hrs by alamar blue assay
# Format: functional, cell-based
# SETUP_CONDITIONS: NCI-H1299, 72 h
pIC50: −log10 of the molar value.
Values of pIC50 greater than or equal to 5 map to T; values below map to F.

COc1cc(/C=C/C(=O)OCCCO[N+](=O)[O-])ccc1O = F
COc1cc(/C=C/C(=O)OC(C)C)ccc1O = F
COc1cc(/C=C/C(=O)OCCCCOc2no[n+]([O-])c2S(=O)(=O)c2ccccc2)ccc1O = T

Please check the record COc1cc(/C=C/C(=O)OCCOc2no[n+]([O-])c2S(=O)(=O)c2ccccc2)ccc1O and state if its pIC50 is at or above 5.
F

###

# System: A549
# ASSAY_OVERVIEW: Cytotoxicity against human A549 cells after 72 hrs by alamar blue assay
# Assay type: functional, cell-based
# SETUP_CONDITIONS: A549, 72 h
// reported pIC50 for each item listed
Please keep in mind that pIC50 is minus log10 of the molar concentration; only the number is needed.

Solved cases (2 shown):
CCCCOC(=O)/C=C/c1ccc(O)c(OC)c1 = 5.08
CCCCOC(=O)/C=C/c1ccc(O)c(O)c1 [BUTYL CAFFEATE] = 5.45

Look at this compound and give its reported pIC50. O=C(/C=C/c1ccc(O)c(O)c1)OCCCCO[N+](=O)[O-]
4.65

Look at this compound and give its reported pIC50. COc1cc(/C=C/C(=O)Oc2ccc(OCc3c(-c4ccccc4)no[n+]3[O-])cc2)ccc1O
5.47

Look at this compound and give its reported pIC50. COc1cc(/C=C/C(=O)Oc2cccc(OCc3c(-c4ccccc4)no[n+]3[O-])c2)ccc1O
6.14

Look at this compound and give its reported pIC50. COc1cc(/C=C/C(=O)OCCCCCCO[N+](=O)[O-])ccc1O
4.43

Look at this compound and give its reported pIC50. O=C(/C=C/c1ccc(O)c(O)c1)OCCCO[N+](=O)[O-]
4.97
